experimental system: KCNQ2/3 channels (Homo sapiens, UniProt O43525+O43526)
test method notes: Fluorescence assay using a voltage sensitive dye (fluorimetry)
measurement conditions: CHO-K1 cells expressing KCNQ2/3 channels, agonistic activity
pEC50: −log10 of the molar value.
parameter measured: pEC50

// recorded pEC50 for `O=C(NCc1cccc(-c2ccccn2)c1)c1cccnc1SCCCc1ccc(F)cc1` : 6.18

[1] CC(C)CCCSc1ncccc1C(=O)NCc1cccs1
[2] O=C(NCc1cccs1)c1cccnc1SC1CCCCC1Cc1ccccc1 (stereo not shown)
[3] CC(CSc1ncccc1C(=O)NCc1cccs1)Sc1cccc(C(F)(F)F)c1 (stereo not shown)
[ask] # rank_down: sort by pEC50, max first Output spec: a listing of the labels in the requested order.
[reply] 3, 2, 1

[I] O=C(NCc1ccc(F)cc1O)c1cccnc1SCCCc1ccc(F)cc1
[II] O=C(NCC1CCCCCC1)c1cccnc1SCCC(F)(F)c1ccc(F)cc1
[ask] // select label with min value of measured pEC50 from [ I , II ] Your answer should be the label of the entry you select.
[reply] I
(I: 6.81, II: 7.46)

[a] CC1CCCC(CNC(=O)c2cccnc2SCCCc2ccc(F)cc2)C1 (stereo not shown)
[b] CCCCCCSc1ncccc1C(=O)NCC1CC2CCC1C2 (stereo not shown)
[ask] Between these two entries, a and b , state which has the higher pEC50. Your answer should be the label of the entry you select.
[reply] a
(a: 6.81, b: 5.79)

[1] COC(C)CCNC(=O)c1cccnc1SCCC(F)(F)c1ccc(F)cc1 (stereo not shown)
[2] COC(=O)CCNC(=O)c1cccnc1SCCC(F)(F)c1ccc(F)cc1
[ask] Between these two entries, 1 and 2 , state which has the higher pEC50. Your answer should be the label of the entry you select.
[reply] 1
(1: 6.43, 2: 5.43)

Value source: patent US8586755B2
